Target: GST tagged LXRbeta LBD (ligand binding domain) (Homo sapiens, UniProt P55055)
Construct: purchased Invitrogen pv4658.pps
Sequence (P55055 222-460 limits assumed): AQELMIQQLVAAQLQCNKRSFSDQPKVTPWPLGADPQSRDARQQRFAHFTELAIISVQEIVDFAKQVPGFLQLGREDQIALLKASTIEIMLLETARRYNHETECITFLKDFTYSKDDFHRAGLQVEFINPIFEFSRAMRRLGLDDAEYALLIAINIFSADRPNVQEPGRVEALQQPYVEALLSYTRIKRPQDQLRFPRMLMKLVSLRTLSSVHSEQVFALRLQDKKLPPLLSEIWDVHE
Assay: LanthaScreen TR-FRET Liver X Receptor Coactivator Assay, LXR beta-LBD (co-activator recruitment; IP and % Emax relative to T0901317)
Format: biochemical
Conditions: efficacy at max dose in relation to reference T0901317, LXR beta-LBD; read-out: LXR beta actiivty at max dose (%)
# binarize Emax: threshold 50% inclusive, high side T, low side F

Worked examples follow.
>>> class_name("COc1cccc([C@@](O)(C(=O)N(C)CCCC2CCN(c3ccc(C(=O)N(C)Cc4noc(C5CC5)n4)c(Cl)n3)CC2)C(F)(F)F)c1")
"T"
>>> class_name("Cc1cccc([C@](O)(C(=O)N(C)CCCC2CCN(c3ccc(C(=O)N(C)C)c(Cl)n3)CC2)C(F)(F)F)c1")
"T"
>>> class_name("CC(C)NC(=O)c1ccc(N2CCC3(CC2)C[C@@H]3CCN(C)C(=O)[C@](O)(c2ccccc2)C(F)(F)F)cc1Cl")
"T"

Query string: Check if Emax >= 50% (inclusive). Item: COc1cccc([C@@](O)(C(=O)N[C@H](C)CCC2CCN(c3ccc(C(=O)N(C)C)c(Cl)n3)CC2)C(F)(F)F)c1
Result string: T

Query string: # check: Emax of CN(C)C(=O)c1ccc(N2CCC(CCCN(C)C(=O)[C@](O)(c3cccc(C4CC4)c3)C(F)(F)F)CC2)nc1Cl is greater than or equal to 50%
Result string: T

Query string: Hi, just wondering whether COc1cccc([C@@](O)(C(=O)N(C)[C@H]2C[C@@H](C3CCN(c4ccc(C(=O)N(C)C)c(Cl)n4)CC3)C2)C(F)(F)F)c1 shows Emax of 50% or higher.
Result string: F

Query string: Exam item: decide whether the reported Emax for CN(C)C(=O)c1ccc(N2CCC3(CC2)CC3CCCN(C)C(=O)[C@](O)(c2ccccc2)C(F)(F)F)cc1Cl (stereo partly shown) is at least 50%.
Result string: F

Query string: Does the compound CN[C@@](C(=O)N(C)CCCC1CCN(c2ccc(C(=O)N(C)C)c(Cl)n2)CC1)(c1cccc(OC)c1)C(F)(F)F have recorded Emax that is 50% or more?
Result string: F

Query string: Please check the record COc1cccc([C@@](O)(C(=O)N(C)CC[C@H]2CC23CCN(c2ccc(C(=O)N(C)C(C)C)c(Cl)n2)CC3)C(F)(F)F)c1 and state if its Emax is at or above 50%.
Result string: T

Query string: # bool: Emax of CCc1cccc([C@](O)(C(=O)N(C)CCCC2CCN(c3ccc(C(=O)N(C)C)c(Cl)n3)CC2)C(F)(F)F)c1 >= 50%
Result string: T

Query string: Is it the case that CN(C)C(=O)c1ccc(N2CCC([C@@H]3C[C@H]3CN(C)C(=O)[C@](O)(c3ccccc3)C(F)(F)F)CC2)nc1Cl has Emax reaching or exceeding 50%?
Result string: T

Query string: In plain terms: is recorded Emax at least 50% for CN(C)C(=O)c1ccc(N2CCC([C@H]3C[C@H]3CNC(=O)[C@](O)(c3ccccc3)C(F)(F)F)CC2)nc1Cl ?
Result string: T

Query string: Dear colleague, could you confirm whether CN(C)C(=O)c1ccc(N2CCC([C@@H]3C[C@H]3CN(C)C(=O)[C@@](O)(c3ccccc3)C(F)(F)F)CC2)nc1Cl has Emax at or above 50%?
Result string: T
